B1: CRYL1 (parent)
chain: RNALENIRKEMKLLEQAGSLKGSL

Variants of: B1
Assay: protein stability index of a GFP-peptide fusion (GPS, HEK-293T) (PSI 1-6); higher = more stable;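 note: lentivirally expressed fusions sorted by FACS into six bins by GFP to DsRed ratio, PSI derived from sequencing read proportions per bin multiplied by bin number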
Details: c terminus: a fixed tail appended
observation_type: protein stability index

L4I	3.21
L24C	4.05
L24T	3.47
A3W	2.57
L24E	4.08
E10M	1.23

**Query** Can you look up the measured protein stability index of `L24D` for me?
**Result** 3.99

**Query** // protein stability index lookup, key: `L14S`
**Result** 3.77

**Query** Give its protein stability index value. Item: `I7T`
**Result** 3.9

**Query** Tell me the measured protein stability index of `G18Q` , please.
**Result** 3.48

**Query** Fill in: protein stability index of `K12T` is ___
**Result** 3.54

**Query** // lookup protein stability index for `L13F`
**Result** 2.85

**Query** Please report the recorded protein stability index for `I7F` .
**Result** 2.37

**Query** I am curious: what protein stability index value has been reported for `R1L` ?
**Result** 3.21

**Query** Could you tell me which protein stability index is on file for `L4G` ?
**Result** 3.14

**Query** GET /values?readout=protein stability index&item= `L13K`
**Result** 3.87

All values here come from the supplement of paper PMC10567573.
